study system: human FPR2 (Homo sapiens)
Sequence (P25090 whole entry): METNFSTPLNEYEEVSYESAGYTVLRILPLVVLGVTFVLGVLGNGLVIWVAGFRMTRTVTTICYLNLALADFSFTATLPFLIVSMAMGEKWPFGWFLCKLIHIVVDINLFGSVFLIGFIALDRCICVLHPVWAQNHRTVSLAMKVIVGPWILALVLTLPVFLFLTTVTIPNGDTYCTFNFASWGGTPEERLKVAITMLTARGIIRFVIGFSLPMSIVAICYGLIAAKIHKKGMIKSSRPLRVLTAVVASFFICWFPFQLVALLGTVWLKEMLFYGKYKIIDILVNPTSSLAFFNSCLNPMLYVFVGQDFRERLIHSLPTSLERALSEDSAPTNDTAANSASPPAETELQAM
run description: FPR2 cyclic adenosine monophosphate (cAMP) assay
conditions used: CHO cells overexpressing human FPR2; forskolin 5 μM; inhibition of cAMP production; HTRF; read-out: hFPR2 cAMP2 EC50
Description: FPR2 and FPR1 Cyclic Adenosine Monophosphate (cAMP) Assays. […] The level of intracellular cAMP was determined using the HTRF HiRange cAMP assay reagent kit (Cisbio) according to manufacturer's instruction. […] After a 1-h room temperature incubation, time-resolved fluorescence intensity was measured using the Envision (Perkin-Elmer) at 400 nm excitation and dual emission at 590 nm and 665 nm. […]
property label: EC50 (nM)

Record excerpt, results attached:
# molecule, EC50 [nM]
measured = [
    ("COc1cc(F)c(-n2cc(C3CCN(C(=O)CCO)CC3)nc2NC(=O)c2ccc(OC(F)F)cc2)c(F)c1", 45),
    ("COc1ccc(-n2cc(-c3ccccc3)nc2NC(=O)c2ccc(OC(F)F)cc2)cc1", 3),
    ("COc1cc(F)c(-n2cc(-c3ccccc3)nc2NC(=O)c2ccc(OC(F)F)cc2)c(F)c1", 4),
    ("COc1cc(F)c(-n2cc(C(=O)NCCO)nc2NC(=O)c2ccc(OC(F)F)cc2)c(F)c1", 130),
    ("COc1cc(F)c(-n2c(NC(=O)c3ccc(OC(F)F)cc3)nc(-c3ccc(Cl)cc3)c2C)c(F)c1", 53),
]

[I] COc1cc(F)c(-n2cc(C(=O)NCc3ccncc3)nc2NC(=O)c2ccc(OC(F)F)cc2)c(F)c1
[II] COc1cc(F)c(-n2cc(-c3ccc(F)c(F)c3)nc2NC(=O)c2ccc(OC(F)F)cc2)c(F)c1
Q. I'd appreciate it if you could identify which of I and II has the greater EC50. Which one? Tell me its label.
A. I

[1] COc1ccc(-n2cc(-c3nccs3)nc2NC(=O)c2ccc(OC(F)F)cc2)cc1
[2] COc1cc(F)c(-n2cc(C3CC3)nc2NC(=O)c2ccc(OC(F)F)cc2)c(F)c1
[3] COc1ccc(-n2cc(-c3nc4ccccc4s3)nc2NC(=O)c2ccc(OC(F)F)cc2)cc1
Q. Put the entries in order of EC50, starting with the largest number. Write the labels, ordered according to the request.
A. 3, 2, 1
(3: 28 nM, 2: 16 nM, 1: 9 nM)

[I] COc1cc(F)c(-n2cc(-c3ccc(F)cc3)nc2NC(=O)c2ccc(OC(F)F)cc2)c(F)c1
[II] COc1ccc(-n2cc(-c3ccccc3F)nc2NC(=O)c2ccc(OC(F)F)cc2)cc1
Q. Consider entries I and II . Which has the numerically lower EC50? Identify your pick by its label.
A. II
(II: 6 nM, I: 11 nM)

[P] COc1cc(F)c(-n2cc(-c3ccnc(Cl)c3)nc2NC(=O)c2ccc(OC(F)F)cc2)c(F)c1
[Q] COc1ccc(-n2cc(C3CCCNC3)nc2NC(=O)c2ccc(OC(F)F)cc2)cc1 (stereo not drawn)
Q. Field: entry with larger EC50 (options P / Q ). Choose, then provide that item's label.
A. P
(P: 16 nM, Q: 11 nM)

[A] COc1ccc(-n2cc(C(C)(C)C)nc2NC(=O)c2ccc(OC(F)F)cc2)cc1
[B] COc1ccc(-n2cc(C(F)(F)C(F)(F)F)nc2NC(=O)c2ccc(OC(F)F)cc2)cc1
[C] COc1cc(F)c(-n2cc(C3CCC(O)CC3)nc2NC(=O)c2ccc(OC(F)F)cc2)c(F)c1 (stereo not drawn)
[D] COc1ccc(-n2cc(-c3ccccn3)nc2NC(=O)c2ccc(OC(F)F)cc2)cc1
Q. # desc sort on EC50 across 4 molecules // format: requested-order list of labels
A. D, B, A, C
(D: 700 nM, B: 48 nM, A: 18 nM, C: 10 nM)

[a] COc1cc(F)c(-n2cc(C3CCOCC3)nc2NC(=O)c2ccc(OC(F)F)cc2)c(F)c1
[b] COc1cc(F)c(-n2cc(C(=O)N3CCC[C@H]3CO)nc2NC(=O)c2ccc(OC(F)F)cc2)c(F)c1
Q. Sorting by EC50 in descending order, would a or b appear first? Reply with the label of the item you choose.
A. b

[I] COc1cc(F)c(-n2cc(C3CNC3)nc2NC(=O)c2ccc(OC(F)F)cc2)c(F)c1
[II] COc1cc(F)c(-n2cc(-c3cccc(F)c3)nc2NC(=O)c2ccc(OC(F)F)cc2)c(F)c1
Q. Endpoint returns the identifier whose EC50 is numerically larger, either I or II . Lab note: record the label of whichever item you select.
A. I

[P] COc1cc(F)c(-n2cc(Cc3nc4ncc(F)cc4[nH]3)nc2NC(=O)c2ccc(OC(F)F)cc2)c(F)c1
[Q] COc1ccc(-n2cc(-c3cc4cc(Cl)ccc4o3)nc2NC(=O)c2ccc(OC(F)F)cc2)cc1
[R] COc1cc(F)c(-n2cc(C(=O)N3CCOCC3)nc2NC(=O)c2ccc(OC(F)F)cc2)c(F)c1
[S] COc1cc(F)c(-n2cc(C(=O)Nc3cn[nH]c3)nc2NC(=O)c2ccc(OC(F)F)cc2)c(F)c1
Q. Could you please sort these 4 entries by EC50 from high to low? Returns: the labels listed in the requested order.
A. R, Q, S, P
(R: 320 nM, Q: 72 nM, S: 32 nM, P: 13 nM)
